B1: Hairpin Ribozyme (parent)
chain: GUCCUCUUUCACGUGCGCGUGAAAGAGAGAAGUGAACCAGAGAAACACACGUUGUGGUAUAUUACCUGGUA

# Variants of: B1
# test_description: self-cleavage, relative activity (ratio to wild type); higher = more cleavage; co-transcriptional
Attribute: self-cleavage
Enter a number only.

Some solved cases for reference:
A11U G21A: 0.586
U9C C65A: 0.945
A22C A44C: 0.0803
C3U A31G: 0.296
U7C A24U: 0.707
A43G G51C: 0.107

Recorded self-cleavage for C3U G17U , please? 0.473

Another variant: A35C C50A 0.364

Try this variant too: C37A U67G 0.202

Also G17A A47U , if possible. 0.132
